meta.source: patent US20230416363A1

biological target: T1, hPD-1-his (human, UniProt Q15116 25-167); test: ELISA, biotin-hPD-1-his on streptavidin
T1 construct: domain: IgV domain; monomer in solution; biotin-labelled where captured by streptavidin; also called biotin-hPD-1-his
T1 sequence (Q15116 other isoform, or with tags, fused parts or gaps limits assumed): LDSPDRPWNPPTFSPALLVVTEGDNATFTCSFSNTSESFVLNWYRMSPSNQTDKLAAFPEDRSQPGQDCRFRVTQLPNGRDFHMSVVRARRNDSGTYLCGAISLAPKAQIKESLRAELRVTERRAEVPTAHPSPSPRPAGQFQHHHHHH
readout_kind: OD450 at 10 nM

Q: Check the records and state OD450 at 10 nM for 33C4 (antibody, V domains shown, also called 780_39) VH: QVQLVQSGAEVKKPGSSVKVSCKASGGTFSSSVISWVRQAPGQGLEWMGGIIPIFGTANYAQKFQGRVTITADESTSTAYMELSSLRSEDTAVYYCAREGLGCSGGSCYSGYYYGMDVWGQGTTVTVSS VL: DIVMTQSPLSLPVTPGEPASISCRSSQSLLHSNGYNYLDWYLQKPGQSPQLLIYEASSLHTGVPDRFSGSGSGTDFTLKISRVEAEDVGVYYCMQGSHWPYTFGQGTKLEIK
Ans: 0.95 OD450
